- assay.method.text: Drug metabolism in human BSMC cells assessed as intracellular H2S release by measuring increase in fluorescence index at 100 uM measured every 5 mins for 60 mins by WSP-1 dye based spectrofluorometric analysis
- Assay type: ADME, cell-based
- experimental.setup: 1 h
observed.property: Drug metabolism

INSERT INTO assay_data (molecule, observed_property, result) VALUES
  ('CCCCC(=O)O[C@]1(C(=O)COC(=O)CCC(=O)Oc2ccc(C(N)=S)cc2)[C@@H](C)C[C@H]2[C@@H]3CCC4=CC(=O)C=C[C@]4(C)[C@@]3(F)[C@@H](O)C[C@@]21C', 'Drug metabolism', 'Metabolite_Detected'),
  ('CCCCC(=O)O[C@]1(C(=O)COC(=O)CCC(=O)Oc2ccc(N=C=S)cc2)[C@@H](C)C[C@H]2[C@@H]3CCC4=CC(=O)C=C[C@]4(C)[C@@]3(F)[C@@H](O)C[C@@]21C', 'Drug metabolism', 'Metabolite_Detected'),
  ('C=CCSSCC=C [DIALLYLDISULFIDE]', 'Drug metabolism', 'Metabolite_Detected'),
  ('Oc1ccc(N=C=S)cc1', 'Drug metabolism', 'Metabolite_Detected');

* * *

- assay.method.text: Drug metabolism in human BSMC cells assessed as intracellular H2S release by measuring increase in fluorescence index at 300 uM measured every 5 mins for 60 mins by WSP-1 dye based spectrofluorometric analysis
- Format: ADME, cell-based
- experimental.setup: 1 h
observed.property: Drug metabolism

INSERT INTO measurements (cpd_smiles, observed_property, result) VALUES
  ('CC1(C)O[C@@H]2C[C@H]3[C@@H]4CCC5=CC(=O)C=C[C@]5(C)[C@@]4(F)[C@@H](O)C[C@]3(C)[C@]2(C(=O)COC(=O)CCC(=O)Oc2ccc(N=C=S)cc2)O1', 'Drug metabolism', 'Metabolite_Detected'),
  ('CCCCC(=O)O[C@]1(C(=O)COC(=O)CCC(=O)Oc2ccc(C(N)=S)cc2)[C@@H](C)C[C@H]2[C@@H]3CCC4=CC(=O)C=C[C@]4(C)[C@@]3(F)[C@@H](O)C[C@@]21C', 'Drug metabolism', 'Metabolite_Detected');

* * *

- assay.method.text: Drug metabolism in human BSMC cells assessed as intracellular H2S release by measuring increase in fluorescence index at 100 uM measured every 5 mins for 60 mins by WSP-1 dye based spectrofluorometric analysis
- Assay type: ADME, cell-based
- experimental.setup: 1 h
observed.property: Drug metabolism

Illustrative cases are given below, each with its answer.
INSERT INTO measurements (cpd_smiles, observed_property, result) VALUES
  ('CCCCC(=O)O[C@]1(C(=O)COC(=O)CCC(=O)Oc2ccc(-c3cc(=S)ss3)cc2)[C@@H](C)C[C@H]2[C@@H]3CCC4=CC(=O)C=C[C@]4(C)[C@@]3(F)[C@@H](O)C[C@@]21C', 'Drug metabolism', 'Metabolite_Notdetected'),
  ('CC1(C)O[C@@H]2C[C@H]3[C@@H]4CCC5=CC(=O)C=C[C@]5(C)[C@@]4(F)[C@@H](O)C[C@]3(C)[C@]2(C(=O)COC(=O)CCC(=O)Oc2ccc(C(N)=S)cc2)O1', 'Drug metabolism', 'Metabolite_Notdetected'),
  ('Oc1ccc(-c2cc(=S)ss2)cc1', 'Drug metabolism', 'Metabolite_Notdetected'),
  ('CC1(C)O[C@@H]2C[C@H]3[C@@H]4CCC5=CC(=O)C=C[C@]5(C)[C@@]4(F)[C@@H](O)C[C@]3(C)[C@]2(C(=O)COC(=O)CCC(=O)Oc2ccc(-c3cc(=S)ss3)cc2)O1', 'Drug metabolism', 'Metabolite_Notdetected');

Now, please, on to the next compound.
May I ask what Drug metabolism has been recorded for NC(=S)c1ccc(O)cc1 ? Metabolite_Notdetected

* * *

- assay.method.text: Drug metabolism in human BSMC cells assessed as intracellular H2S release by measuring increase in fluorescence index at 300 uM measured every 5 mins for 60 mins by WSP-1 dye based spectrofluorometric analysis
- Assay type: ADME, cell-based
- experimental.setup: 1 h
observed.property: Drug metabolism

Below: 5 compounds and their reported Drug metabolism.
INSERT INTO measurements (cpd_smiles, result) VALUES
  ('CCCCC(=O)O[C@]1(C(=O)COC(=O)CCC(=O)Oc2ccc(N=C=S)cc2)[C@@H](C)C[C@H]2[C@@H]3CCC4=CC(=O)C=C[C@]4(C)[C@@]3(F)[C@@H](O)C[C@@]21C', 'Metabolite_Detected'),
  ('CC1(C)O[C@@H]2C[C@H]3[C@@H]4CCC5=CC(=O)C=C[C@]5(C)[C@@]4(F)[C@@H](O)C[C@]3(C)[C@]2(C(=O)COC(=O)CCC(=O)Oc2ccc(-c3cc(=S)ss3)cc2)O1', 'Metabolite_Detected'),
  ('CCCCC(=O)O[C@]1(C(=O)COC(=O)CCC(=O)Oc2ccc(-c3cc(=S)ss3)cc2)[C@@H](C)C[C@H]2[C@@H]3CCC4=CC(=O)C=C[C@]4(C)[C@@]3(F)[C@@H](O)C[C@@]21C', 'Metabolite_Notdetected'),
  ('CC1(C)O[C@@H]2C[C@H]3[C@@H]4CCC5=CC(=O)C=C[C@]5(C)[C@@]4(F)[C@@H](O)C[C@]3(C)[C@]2(C(=O)COC(=O)CCC(=O)Oc2ccc(C(N)=S)cc2)O1', 'Metabolite_Notdetected'),
  ('Oc1ccc(N=C=S)cc1', 'Metabolite_Detected');

For the next question, use this compound.
Fill in: Drug metabolism of NC(=S)c1ccc(O)cc1 is ___ Metabolite_Detected
